SYSTEM NAME: progesterone receptor (Homo sapiens)
Construct: The source of the progesterone receptor is the cytosolic fraction of MCF-7 cells (human breast cancer cell line); endogenous in cells; host or cells: MCF-7 cells (human breast adenocarcinoma), cytosolic fraction, 10 nM estradiol for 24 h before harvest
Sequence (P06401 1-933): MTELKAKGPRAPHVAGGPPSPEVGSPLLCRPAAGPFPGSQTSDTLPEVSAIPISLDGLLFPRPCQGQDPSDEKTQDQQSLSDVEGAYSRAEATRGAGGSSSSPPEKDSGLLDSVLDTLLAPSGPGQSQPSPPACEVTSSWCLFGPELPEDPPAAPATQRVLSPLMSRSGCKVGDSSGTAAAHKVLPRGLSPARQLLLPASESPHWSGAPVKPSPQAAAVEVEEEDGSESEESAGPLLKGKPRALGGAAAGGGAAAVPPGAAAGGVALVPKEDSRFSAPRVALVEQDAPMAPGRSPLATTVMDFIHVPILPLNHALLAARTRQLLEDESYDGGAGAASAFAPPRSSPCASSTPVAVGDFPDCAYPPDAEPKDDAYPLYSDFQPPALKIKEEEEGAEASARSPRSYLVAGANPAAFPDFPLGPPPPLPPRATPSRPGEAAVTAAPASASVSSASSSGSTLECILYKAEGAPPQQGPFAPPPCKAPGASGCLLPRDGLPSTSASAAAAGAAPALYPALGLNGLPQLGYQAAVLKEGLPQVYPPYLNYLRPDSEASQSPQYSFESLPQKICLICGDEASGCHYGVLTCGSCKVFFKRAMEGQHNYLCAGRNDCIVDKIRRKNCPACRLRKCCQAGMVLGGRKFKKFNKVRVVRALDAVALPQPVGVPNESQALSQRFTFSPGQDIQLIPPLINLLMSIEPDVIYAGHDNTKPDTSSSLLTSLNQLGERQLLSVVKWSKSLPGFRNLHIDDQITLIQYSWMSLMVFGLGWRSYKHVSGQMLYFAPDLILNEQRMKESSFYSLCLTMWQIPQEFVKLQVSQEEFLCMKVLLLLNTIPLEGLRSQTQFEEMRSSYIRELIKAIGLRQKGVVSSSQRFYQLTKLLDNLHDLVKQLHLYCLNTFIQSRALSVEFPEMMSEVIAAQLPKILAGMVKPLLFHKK
ASSAY REMARKS: Competitive binding of test compounds vs 3H-R5020 to the progesterone receptor (MCF-7 cytosol)
CONDITION LABEL: of 3H-R5020 (20 nM) binding; competitor at 400× fold excess; 12-14 hours on ice
MEASURED ATTRIBUTE: inhibition (%)
Unit % implied. Number only.

Solved entries (count: 3):
C[C@H](C=O)[C@H]1CC[C@H]2/C(=C/C=C3CCC4(CC3)OCCO4)CCC[C@]12C = 47
C[C@H](CO)[C@H]1CC[C@H]2/C(=C/C=C3CCC4(CC3)OCCO4)CCC[C@]12C = 40
CC(=O)[C@H]1CC[C@H]2/C(=C/C=C3CCCCC3)CCC[C@]12C = 24

Now take the following compound into account.
What does the data say about its inhibition? Entry: `C[C@H](C=O)[C@H]1CC[C@H]2/C(=C/C=C3CCCCC3)CCC[C@]12C`
36

* * *

Recorded Total Binding (DPM) ± S.D. values for a group of molecules are listed next.
SYSTEM NAME: progesterone receptor (Homo sapiens, UniProt P06401)
Construct: The source of the progesterone receptor is the cytosolic fraction of MCF-7 cells (human breast cancer cell line); endogenous in cells; host or cells: MCF-7 cells (human breast adenocarcinoma), cytosolic fraction, 10 nM estradiol for 24 h before harvest
ASSAY REMARKS: Competitive binding of test compounds vs 3H-R5020 to the progesterone receptor (MCF-7 cytosol)
CONDITION LABEL: 3H-R5020 (20 nM) bound; competitor at 400× fold excess; 12-14 hours on ice
Unit DPM implied. Number only.

C[C@H](C=O)[C@H]1CC[C@H]2/C(=C/C=C3CCCCC3)CCC[C@]12C = 3045
C[C@H](CO)[C@H]1CC[C@H]2/C(=C/C=C3CCCCC3)CCC[C@]12C = 4139
C[C@H](C=O)[C@H]1CC[C@H]2/C(=C/C=C3CCC4(CC3)OCCO4)CCC[C@]12C = 2546
CC(=O)[C@H]1CC[C@H]2/C(=C/C=C3CCC4(CC3)OCCO4)CCC[C@]12C = 2531
C[C@H](CO)[C@H]1CC[C@H]2/C(=C/C=C3CCC4(CC3)OCCO4)CCC[C@]12C = 2881
CC(=O)[C@H]1CC[C@H]2/C(=C/C=C3CCCCC3)CCC[C@]12C = 3616

What does the data say about its Total Binding (DPM) ± S.D.? Entry: CCC(=O)[C@@]1(C)CC[C@H]2[C@@H]3CCC4=CC(=O)CCC4=C3CC[C@@]21C [R5020, reference compound]
750

Then `C=C1CC[C@H](O)C/C1=C/C=C1\CCC[C@]2(C)[C@@H](C(C)=O)CC[C@@H]12` ?
1950

Then `CC(=O)[C@H]1CC[C@H]2/C(=C/C=C3CCC(=O)CC3)CCC[C@]12C` ?
2036

* * *

SYSTEM NAME: progesterone receptor (Homo sapiens)
Construct: The source of the progesterone receptor is the cytosolic fraction of MCF-7 cells (human breast cancer cell line); endogenous in cells; host or cells: MCF-7 cells (human breast adenocarcinoma), cytosolic fraction, 10 nM estradiol for 24 h before harvest
ASSAY REMARKS: Competitive binding of test compounds vs 3H-R5020 to the progesterone receptor (MCF-7 cytosol)
CONDITION LABEL: of 3H-R5020 (20 nM) binding; competitor at 400× fold excess; 12-14 hours on ice
Recorded inhibition values for a group of compounds are listed next.
Unit % implied. Number only.

Solved entries (count: 3):
C[C@H](CO)[C@H]1CC[C@H]2/C(=C/C=C3CCCCC3)CCC[C@]12C [4a] = 13
CC(=O)[C@H]1CC[C@H]2/C(=C/C=C3CCC4(CC3)OCCO4)CCC[C@]12C [6b] = 47
C=C1CC[C@H](O)C/C1=C/C=C1\CCC[C@]2(C)[C@@H](C(C)=O)CC[C@@H]12 [20-oxopregnacalciferol, 20-oxo-pregnacalciferol] = 59

What does the data say about its inhibition? Entry: CC(=O)[C@H]1CC[C@H]2/C(=C/C=C3CCC(=O)CC3)CCC[C@]12C [6c]
58
